- PROTOCOL: qHTS assay for small molecule activators of the p53 signaling pathway (AID 651743); also: series mostly up to about 92 µM; % of control where 0% means no effect
- DETAILS: HCT-116 p53RE-bla, beta-lactamase FRET ratio, 16 h; hits give high values
Records with an inconclusive call do not appear.
Please go through the items and note down their activation.
The response must be a number in % with no trailing unit.

# activation of Oc1cc(Cl)cc(Cl)c1 = 1.86

For Nc1ccc2ccccc2c1 the compound record lists activation as 0.265

Kindly note the recorded activation for CCC/C=N/O , which is 2.09

Item: O=C(Cl)OCc1ccccc1 | activation: -2.98

According to the records, this compound BrCC(Br)(Br)Br displays activation of -0.838

// Clc1ccc(C(Cl)(Cl)Cl)c(Cl)c1 : activation value = -0.0334

// activation lookup, compound = CN(C)c1ccccc1 , result: -3.2

For reference, reported activation for Cc1cc(-c2cc(C)c(N)c(C)c2)cc(C)c1N stands at -3.17

The recorded activation for entry c1ccc(P(c2ccccc2)c2ccccc2)cc1 equals -3.71

The compound identified as C=CC=O registered its activation at -0.485

// activation value for CC(C)OS(C)(=O)=O : -0.853

Kindly note the recorded activation for C/C=C/CC#N , which is -0.715

get_value(item= Nc1cc(Cl)cc(Cl)c1 , readout=activation) returns 1.82

// field: activation; key: BrCCc1ccccc1 ; value = -5.87

The reported activation of the compound CN(C)N=O was -2.39

Entry under test: Cc1ccc2c(C)cccc2c1 . Its activation was -0.174

# activation (compound: Nc1ccc(-c2ccc(N)cc2)cc1 ) is -1.06

* * *

Provide the recorded Potency for the entries that follow.
- Tested on: HIV-1 nucleocapsid protein NCp7 (binding to TG oligonucleotide)
- PROTOCOL: HIV Nucleocapsid (AID 346);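 also: potency is read from the fitted curve at half-maximal effect; potency is for inhibitors that block NC binding and lower polarization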
- DETAILS: HIV-1 NC / fluorescein-TGTGTGTG probe, fluorescence polarization
- Experimental: NCGC Assay Overview: HIV-1 nucleocapsid protein (HIV-1 NC) is a small (6.5 kDa) basic zinc-finger protein which participates in packaging of viral genomic RNA. The spacing and metal-chelating residues (3 Cys, 1 His) of the Cys-X2-Cys-X4-His-X4-Cys Zn fingers are conserved among all known retroviruses (J. Med. Chem. 1998, 41, 1371-1381). […] NCGC Assay Protocol Summary: Buffer. […] The plates were incubated for 1 hr at room temperature, and then read on ViewLux (Perkin-Elmer). […]
The source made the active and inactive calls. How the calls were made is not given here.

The recorded Potency for CN(C)c1ncc2nc(-c3cc(F)cc(F)c3)c(=O)n(C3CC3)c2n1 is > 20 µM (inactive)

// field: Potency; key: Cc1nc2cnc(Oc3cccc(Cl)c3)nc2n(Cc2ccc(F)cc2)c1=O ; value = > 20 µM (inactive)

In plain terms, COc1ccccc1CN1CCCC2(CCN(C(=O)c3cnccn3)CC2)C1 has a documented Potency of > 20 µM (inactive)

For this compound ( COc1ccc(-c2nc3cnc(N(C)C)nc3n(C3CC3)c2=O)cc1 ), measured Potency is > 20 µM (inactive)

Reported Potency for CN(C)c1ncc2nc(-c3ccccc3)c(=O)n(CCc3ccccc3)c2n1 was > 20 µM (inactive)

The reported Potency of the compound Cc1nc2cnc(Oc3ccccc3)nc2n(-c2ccccc2)c1=O was > 20 µM (inactive)
